Source: paper PMC10602884

Molecular target: RPA-Tri-C (OB-C/D/E) (Saccharomyces cerevisiae, UniProt P22336;P26754;P26755 442-621;32-182;1-122)
Sequence (P22336 442-621, chain 1 of 3): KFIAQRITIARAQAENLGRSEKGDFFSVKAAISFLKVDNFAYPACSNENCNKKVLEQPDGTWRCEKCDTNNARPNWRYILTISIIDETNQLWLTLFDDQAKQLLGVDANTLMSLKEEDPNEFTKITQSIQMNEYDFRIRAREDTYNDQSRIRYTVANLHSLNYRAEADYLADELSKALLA
Sequence (P26754 32-182, chain 2 of 3): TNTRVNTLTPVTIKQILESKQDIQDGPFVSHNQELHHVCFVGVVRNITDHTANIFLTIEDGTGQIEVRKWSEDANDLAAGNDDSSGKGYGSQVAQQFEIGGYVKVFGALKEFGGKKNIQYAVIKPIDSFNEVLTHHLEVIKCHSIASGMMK
Sequence (P26755 whole entry, chain 3 of 3): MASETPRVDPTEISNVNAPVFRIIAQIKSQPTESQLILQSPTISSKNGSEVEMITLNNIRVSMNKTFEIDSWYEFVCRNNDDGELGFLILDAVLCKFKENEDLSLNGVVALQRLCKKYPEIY
Experiment: fluorescence anisotropy; 0.5 M NaCl; apparent Kd, Hill fit; 30 mM HEPES pH 7.5, 30 mM NaCl, 0.25 mM EDTA, 10% glycerol, 0.01% NP-40, 1 mM DTT, plus 0.5 M NaCl for dT30 (no supplemental NaCl for dT60), 2.5 nM DNA, room temperature, 30 min
Conditions: protein: recombinant; tags: Rfa2 C-terminal MxeGyrA intein-CBD-6xHis (in expression construct); copies: 1;1;1; label: 6-FAM; single strand
pKd: −log10 of the molar value.
Outcome measure: pKd

> print(dat)
                                     binder  measured.result
1  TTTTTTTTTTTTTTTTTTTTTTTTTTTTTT (ssDNA) [6-FAM-oligo-dT30]            ~8.53
